Examples of compounds with documented IC50 follow.
target_system: Full-length, GST-tagged, human CaMKIIδ (Homo sapiens)
Construct: Full-Length, Glutathione-S-Transferase(GST)-Tagged, Human CaMKIIδ was purchased from Carna Biosciences; purchased Carna Biosciences 02-111
Sequence (Q13557 1-478 isoform Q13557-12): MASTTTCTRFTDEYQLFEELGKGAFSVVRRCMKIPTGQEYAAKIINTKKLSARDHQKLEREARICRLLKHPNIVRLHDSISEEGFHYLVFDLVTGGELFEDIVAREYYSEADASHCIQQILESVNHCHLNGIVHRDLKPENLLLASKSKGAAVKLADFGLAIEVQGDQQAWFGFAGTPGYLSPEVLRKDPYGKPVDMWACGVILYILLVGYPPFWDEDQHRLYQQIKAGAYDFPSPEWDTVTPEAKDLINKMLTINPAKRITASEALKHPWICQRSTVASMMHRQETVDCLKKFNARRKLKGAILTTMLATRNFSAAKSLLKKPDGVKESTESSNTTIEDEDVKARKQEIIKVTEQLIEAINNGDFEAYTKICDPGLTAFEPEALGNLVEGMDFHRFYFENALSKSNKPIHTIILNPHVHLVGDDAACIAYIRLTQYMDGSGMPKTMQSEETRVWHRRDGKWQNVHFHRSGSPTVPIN
assay: CaMKIIδ binding assay (TR-FRET with BODIPY-labeled probe ligand)
condition_context: Table 2; activity class for CaMKIIδ

Some solved cases for reference:
>>> measurement("C[C@@H](Cn1cnnn1)Oc1cc(-c2cnc(Nc3cn(CC4CCCN4C4CCOCC4)nc3C(F)(F)F)nc2)ccc1Cl (stereo partly shown)")
"< 10 nM"
>>> measurement("C[C@@H](Cn1cnnn1)Oc1cc(-c2cnc(Nc3cn(Cc4ccncc4)nc3C(F)(F)F)nc2)ccc1Cl")
"10 to 100 nM"

Request: Look up IC50 for this compound: COc1cc(N2CCN(C3CCOCC3)CC2)ncc1Nc1ncc(-c2ccc(Cl)c(O[C@@H](C)Cn3cnnn3)c2)cn1
Result: < 10 nM

Request: // same read-out, input: C[C@@H](Cn1cnnn1)Oc1cc(-c2cnc(Nc3cn(C4CCN(C5CCOCC5)CC4)nc3C#N)nc2)ccc1Cl
Result: < 10 nM

Request: // same read-out, input: CC(C(N)=O)n1cc(Nc2ncc(-c3ccc(Cl)c(O[C@@H](C)Cn4cnnn4)c3)cn2)c(C(F)(F)F)n1 (stereo partly shown)
Result: < 10 nM

Request: // same read-out, input: C[C@@H](Cn1cnnn1)Oc1cc(-c2cnc(Nc3cn(CC4CCCCO4)nc3C(F)(F)F)nc2)ccc1Cl (stereo partly shown)
Result: 10 to 100 nM

Request: // same read-out, input: COc1ccc(N2C[C@@H](C)N[C@@H](C)C2)cc1Nc1ncc(-c2ccc(Cl)c(O[C@@H](C)Cn3cnnn3)c2)cn1
Result: < 10 nM
